System: cathepsin targets
Experiment: Cathepsin targets of the compounds (Table 4)
Assay type: biochemical, rat
Conditions: cathepsin target(s) inhibited; General = all cathepsins
Property label: Target

Check out these entries, answers already filled in.
[[record]]
compound = "CC(C)C[C@H](NC(=O)[C@H]1O[C@@H]1C(=O)NCCc1ccc(O)cc1)C(=O)NCCc1ccccn1 [Compound 63]"
property_label = "Target"
experimental_result = "Cat B & Z"

[[record]]
compound = "CC(C)C[C@H](NC(=O)C1OC1C(=O)NCCc1ccccn1)C(=O)N[C@@H](Cc1ccc(O)cc1)C(N)=O (stereo partly shown) [Compound 22]"
property_label = "Target"
experimental_result = "Cat B"

[[record]]
compound = "CCOC(=O)C1OC1C(=O)N(CC(=O)N[C@@H](Cc1ccc(O)cc1)C(N)=O)CC(C)C (stereo partly shown) [Compound 103]"
property_label = "Target"
experimental_result = "Cat B"

[[record]]
compound = "NC(=O)[C@H](Cc1ccc(O)cc1)NC(=O)[C@H](CC1CCCCC1)NC(=O)C1OC1C(=O)O (stereo partly shown) [Compound 74]"
property_label = "Target"
experimental_result = "Cat B & Z"

[[record]]
compound = "Cc1ccc(C[C@H](NC(=O)[C@H]2O[C@@H]2C(=O)NCCc2ccc(O)cc2)C(=O)N[C@@H](Cc2ccc(O)cc2)C(N)=O)cc1 [Compound 6]"
property_label = "Target"
experimental_result = "Cat B"


Data request: Return reported Target; argument: CCOC(=O)C1OC1C(=O)N[C@@H](Cc1ccc(C)cc1)C(=O)NCc1cccc2ccccc12 (stereo partly shown) [Compound 119]
Data returned: Cat Z

Data request: What would you report for CC(C)C[C@H](NC(=O)[C@H]1OC1C(=O)N[C@H](C)c1ccccc1)C(=O)N[C@@H](Cc1ccc(O)cc1)C(N)=O (stereo partly shown) [Compound 29] ?
Data returned: Cat B
